SYSTEM: Rac GTPase-activating protein 1 (Homo sapiens)
ASSAY_NAME: blockers of MgcRacGAP-driven Rac1 GTP hydrolysis – biochemical, ADP Hunter fluorescence, primary and confirmatory, confirmation (AID 624330);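 note: fluorescence reports GDP produced by GAP-driven GTP hydrolysis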
CONDITION_DETAILS: MgcRacGAP-stimulated Rac1 GTP hydrolysis, at 30 µM, stronger effect = higher value, GST-tagged Rac1 F28L mutant substrate
Hit rate of the full screen: of about 340,000 compounds, about 2,100 (0.62%) were called active. These entries were drawn from the full list. Measured potencies and affinities stand elsewhere.
EXPERIMENTAL_ENDPOINT: inhibition (%)
One number for each entry, in %.

Some entries whose results are on file:
MOLECULE	READOUT_UNIT	inhibition
Cc1cccc(NC(=O)CSc2nnc(CNC(=O)c3cccs3)o2)c1C	%	8.9
O=S(=O)(Cc1ccccc1)NCCc1ccc(F)cc1	%	-2.46
COc1ccccc1NC(=O)CSc1nnc(-c2ccoc2C)n1CC1CCCO1 (stereo not given)	%	9.62
NC[C@H]1O[C@H](O[C@H]2[C@H](O)[C@@H](O[C@H]3O[C@H](CO)[C@@H](O)[C@H](N)[C@H]3O)[C@H](N)C[C@@H]2N)[C@H](N)C[C@@H]1O	%	6.29

Hey, can you go through the list below and give me inhibition for every item?
1. O=C(Nc1ccncc1)c1ccc(Cl)c(Cl)c1
2. COc1ccc(CN(C)C(=O)Cc2ccc(OC)c(S(=O)(=O)N3CCOCC3)c2)cc1
3. Cc1ccc(N2CC(C(=O)NC(C)CCc3ccccc3)CC2=O)cc1 (stereo not given)
4. CCCNC(=O)c1ccc(OC)cc1OC
5. Cc1nnc(C)n1/N=C/c1cccc([N+](=O)[O-])c1
6. ON=C1CCCC2CCCCC12 (stereo not given)
7. CCc1cccc(CC)c1NC(=O)CN1CCN(c2ccccc2)CC1

4.24
6.77
1.14
-1.98
0.71
-2.9
20.5

Hey, can you go through the list below and give me inhibition for every item?
1. Cc1ccc(C(=O)Nc2ccncc2)cc1[N+](=O)[O-]
2. O=C(Nc1ccc(NC(=O)c2ccc(Cl)cc2Cl)cc1)c1ccc2c(c1)OCO2

[10.1, 5.16]

Hey, can you go through the list below and give me inhibition for every item?
1. CCC(Oc1ccccc1C)C(=O)N1CCCN(C)CC1 (stereo not given)
2. C[C@@H]1CN([C@@H](C)CO)C(=O)CCCn2cc(nn2)CO[C@H]1CN(C)S(=O)(=O)c1ccc(Oc2ccccc2)nc1
3. Cc1ccc(C(=O)N(CC(=O)Nc2ccc(Cl)c(Cl)c2)Cc2ccco2)cc1

1. 3.47
2. 15.5
3. 2.86

---

Task for the reader: assign each of the following molecules its reported inhibition.
SYSTEM: Rac GTPase-activating protein 1 (Homo sapiens)
ASSAY_NAME: blockers of MgcRacGAP-driven Rac1 GTP hydrolysis – biochemical, ADP Hunter fluorescence, primary and confirmatory, confirmation (AID 624330);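 note: fluorescence reports GDP produced by GAP-driven GTP hydrolysis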
CONDITION_DETAILS: MgcRacGAP-stimulated Rac1 GTP hydrolysis, at 30 µM, stronger effect = higher value, GST-tagged Rac1 F28L mutant substrate
About 2,100 (0.62%) of roughly 340,000 compounds were called active. The list is a sample of the results. Entries with a potency or affinity are not part of this list.
Numbers only, in %.

MOLECULE	READOUT_UNIT	inhibition
COC(=O)[C@@H](N)Cc1ccc(O)c(O)c1	%	-7.99
CCn1c(Cc2cccs2)nnc1SCC(=O)Nc1ccc(OC)c(OC)c1	%	7.07
O=C(N/N=C/c1cccc(C(F)(F)F)c1)c1ccc(O)cc1	%	6.36
O=C(NN=Cc1ccc(F)cc1)c1ccccc1NS(=O)(=O)c1cccs1	%	5.29

Hey, can you go through the list below and give me inhibition for every item?
1. CC(C)(C)c1cc(C(=O)N/N=C/c2ccc(F)cc2)n(-c2ccccc2)n1
2. CCOc1ccc(C(=O)NCCc2ccc3c(c2)OCCO3)cc1
3. COc1cccc(/C=N/NC(=O)CNC(=O)c2ccc3c(c2)OCCO3)c1O
4. COc1ccc(/C=N/NC(=O)CNC(=O)c2ccc3c(c2)OCCO3)cc1OC
5. CN(C(=O)CSc1nc2[nH]ncc2c(=O)[nH]1)c1ccccc1
6. O=C(N/N=C/c1ccc2c(c1)OCO2)c1ccc2c(c1)OCO2
7. CN(C)c1ccc(/C=N/NC(=O)CNC(=O)c2ccc3c(c2)OCCO3)cc1

[6.73, 6.99, 8.24, 12.1, 2.08, 9.83, 14.6]

---

Task for the reader: assign each of the following compounds its reported inhibition.
SYSTEM: Rac GTPase-activating protein 1 (Homo sapiens)
ASSAY_NAME: blockers of MgcRacGAP-driven Rac1 GTP hydrolysis – biochemical, ADP Hunter fluorescence, primary and confirmatory, confirmation (AID 624330);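 note: fluorescence reports GDP produced by GAP-driven GTP hydrolysis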
CONDITION_DETAILS: MgcRacGAP-stimulated Rac1 GTP hydrolysis, at 30 µM, stronger effect = higher value, GST-tagged Rac1 F28L mutant substrate
Hit rate of the full screen: of about 340,000 compounds, about 2,100 (0.62%) were called active. A selection follows. Measured potencies and affinities stand elsewhere.
One number for each entry, in %.

COMPOUND	SYSTEM	inhibition (%)
O=[N+]([O-])c1cc(/C=N/Nc2nc(N3CCCCC3)nc(N3CCCCC3)n2)ccc1O	Rac GTPase-activating protein 1 (Homo sapiens)	9.9
COc1ccc(/C=N/Nc2nc(N3CCCC3)nc(N3CCCC3)n2)cc1	Rac GTPase-activating protein 1 (Homo sapiens)	3.1
O=S(=O)(O)c1cccc2cccc(Nc3ccccc3)c12	Rac GTPase-activating protein 1 (Homo sapiens)	13.4
Cc1cccc(-n2cnc(C(=O)N/N=C/c3ccccc3)c2)n1	Rac GTPase-activating protein 1 (Homo sapiens)	6.69
Cc1cccc(-n2cnc(C(=O)N/N=C\c3ccc(Br)cc3)c2)n1	Rac GTPase-activating protein 1 (Homo sapiens)	12.1
CSc1ccc(CN2CCC(Cc3ccccc3)CC2)cc1	Rac GTPase-activating protein 1 (Homo sapiens)	15
CCOc1cc(/C=N/Nc2nc(N3CCCC3)nc(N3CCCC3)n2)ccc1O	Rac GTPase-activating protein 1 (Homo sapiens)	26.7
COc1ccc(/C=N/NC(=O)c2nc(-c3ccccc3)n(-c3ccccc3)n2)cc1OC	Rac GTPase-activating protein 1 (Homo sapiens)	6.46

Hey, can you go through the list below and give me inhibition for every item?
1. Nc1ccc(C(=O)Nc2ccc3c(O)cc(S(=O)(=O)O)cc3c2)cc1
2. O=S(=O)(c1ccccc1)c1cc(O)ccc1O
3. CCCN(CCC)CCNS(=O)(=O)c1ccc2c(c1)CCN2C(=O)C1CCC1

14.1
6.16
12.9

Hey, can you go through the list below and give me inhibition for every item?
1. CC(Oc1ccc(Cl)cc1Cl)C(=O)Nc1cccc(O)c1 (centres undefined)
2. CCc1ccc(NC(=O)CCNC(=O)Cn2cnc3ccccc3c2=O)cc1

1: 9.91; 2: 9.24

Hey, can you go through the list below and give me inhibition for every item?
1. COc1ccc(CN2CCN(C(=O)c3ccccc3F)CC2)c(OC)c1OC
2. Cc1cc(=O)oc2cc(Nc3ccccc3)ccc12

1: -1.41; 2: 6.98

Hey, can you go through the list below and give me inhibition for every item?
1. C(=N\Nc1nc(N2CCCC2)nc(N2CCCC2)n1)/c1ccncc1
2. Cc1ccc(S(=O)(=O)Nc2ccc(O)c(S(=O)(=O)c3ccc(C)cc3)c2)cc1
3. Nc1cccc([N+](=O)[O-])c1
4. Clc1ccc(OCCCCCN2CCOCC2)cc1
5. N#CCC(=N)N1CCN(c2ccc(F)cc2)CC1
6. COc1ccccc1NC(=O)c1cc2ccccc2o1
7. O=[N+]([O-])c1cccc(S(=O)(=O)c2cccc([N+](=O)[O-])c2)c1
8. CCOc1ccc(/C=N/Nc2nc(N3CCCC3)nc(N3CCCC3)n2)cc1OC

1: -2.52; 2: 6.97; 3: 0.03; 4: -5.93; 5: 1.28; 6: 10.9; 7: 4.34; 8: 3.96

Reported inhibition for CC(=O)Nc1ccc(NC(=O)C(C)Oc2ccc(Cl)cc2Cl)cc1 (centres undefined) was 1.91

---

SYSTEM: Rac GTPase-activating protein 1 (Homo sapiens)
ASSAY_NAME: blockers of MgcRacGAP-driven Rac1 GTP hydrolysis – biochemical, ADP Hunter fluorescence, primary and confirmatory, confirmation (AID 624330);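 note: fluorescence reports GDP produced by GAP-driven GTP hydrolysis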
CONDITION_DETAILS: MgcRacGAP-stimulated Rac1 GTP hydrolysis, at 30 µM, stronger effect = higher value, GST-tagged Rac1 F28L mutant substrate
The whole screen tested about 340,000 compounds, of which about 2,100 (0.62%) were called active. Not all results are given here. Potency and affinity values are given separately.
EXPERIMENTAL_ENDPOINT: inhibition (%)
Give bare numbers, in %.

Some entries whose results are on file:
COMPOUND	inhibition / %
O=[N+]([O-])c1cccc(CN2CCN(c3ncccn3)CC2)c1	25.4
COc1ccc(CNCC(=O)Nc2cccc(S(N)(=O)=O)c2)cc1	24.6
COC(=O)c1ccc(CNCC(=O)Nc2ccc(C(=O)OC)cc2)cc1	-0.29

Hey, can you go through the list below and give me inhibition for every item?
1. O=C(c1ccco1)N1CCN(Cc2cccc(F)c2)CC1
2. O=[N+]([O-])c1cccc(CN2CCCCCC2)c1
3. CCC(=O)Nc1cccc(C(=O)/C=C/c2cc(Br)ccc2OC)c1
4. Cc1noc(C)c1S(=O)(=O)N1CCCC(C(=O)NCC2CCCO2)C1 (stereo unspecified)
5. O=C(COC(=O)/C=C/c1ccc([N+](=O)[O-])cc1)Nc1ccc2[nH]c(=O)[nH]c2c1
6. Cc1ccc(C(=O)NC(NCc2ccco2)C(Cl)(Cl)Cl)cc1 (stereo unspecified)

1. 14.6
2. 10.9
3. 7.87
4. 4.53
5. 8.57
6. 2.01

Hey, can you go through the list below and give me inhibition for every item?
1. Cc1c(N(C)S(=O)(=O)c2ccc(Cl)c(C(=O)NCC3CCCO3)c2)c(=O)n(-c2ccccc2)n1C (stereo unspecified)
2. O=[N+]([O-])c1ccc(S(=O)(=O)N2CCN(Cc3ccco3)CC2)cc1

1.31
15.9
